// data source = ChEMBL document CHEMBL1800009

// reported clearance for each item listed
protocol: in vivo
protocol-conditions: rat, whole blood
Give a bare numeral; the unit mL/min/kg is implied.

Cc1nnc(N2CCCC2)c2nn(-c3ccc(OCC(F)(F)F)cc3)c(C)c12 49

Problem: Tell me measured clearance for COC1CN(c2nnc(C)c3c(C)n(-c4ccc(Cl)cc4OC(F)(F)F)nc23)C1 please.
Result: 52
